- tested_target: T1, human calcitonin receptor (human, UniProt P30988 25-474)
- T1 sequence (looked up): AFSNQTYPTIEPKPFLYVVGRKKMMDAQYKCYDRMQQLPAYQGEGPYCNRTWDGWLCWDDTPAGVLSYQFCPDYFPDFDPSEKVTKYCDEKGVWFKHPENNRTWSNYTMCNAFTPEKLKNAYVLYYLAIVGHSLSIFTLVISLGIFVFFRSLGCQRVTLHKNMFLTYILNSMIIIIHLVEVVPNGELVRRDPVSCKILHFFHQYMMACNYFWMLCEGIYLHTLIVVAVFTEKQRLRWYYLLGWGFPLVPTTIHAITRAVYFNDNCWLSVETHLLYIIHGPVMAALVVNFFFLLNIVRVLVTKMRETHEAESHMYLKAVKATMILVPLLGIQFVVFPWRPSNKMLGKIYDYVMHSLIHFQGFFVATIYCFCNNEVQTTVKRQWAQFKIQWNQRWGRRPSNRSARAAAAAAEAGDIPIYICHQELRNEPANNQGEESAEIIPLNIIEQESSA
- assay_explanation: cell-based or functional assay
Numbered stars: 1 amine (or outer) side, 2 acyl side, 3 side chain; on linkers, the order of the positions; unused ones are H or OH. Bridge positions count the residues as written; N and C are the ends. Side chains are listed from the residue outwards. Ends that are not written are not given here. * marks the point of attachment. C20 diacid = O=C(O)CCCCCCCCCCCCCCCCCCC(=O)*; γGlu = O=C(O)[C@H](CCC(=O)[*:2])N[*:1]; C14 diacid = O=C(O)CCCCCCCCCCCCC(=O)*
reported_property: hCTR funct. EC50 (pM)

INSERT INTO assay_data (binder, readout_value) VALUES
  ('K([γGlu-C14 diacid])CNTATCATQRLANFLRHSSPNFGAIPSSTNVGHNTY-NH2 (disulfide 2-7 (inferred), Synthetic) [N^ε1-[(4S)-4-carboxy-4-(13-carboxytridecanoylamino)butanoyl]-[Arg17,Pro21,Pro27,His34]-h-amylin]', 1090);

I: K([γGlu-C20 diacid])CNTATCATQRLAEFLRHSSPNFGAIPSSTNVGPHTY-NH2 (disulfide 2-7 (inferred), Synthetic)
II: K([γGlu-γGlu-C20 diacid])CNTATCATQRLASFLRHSSPNFGAIPSSTNVGPETY-NH2 (disulfide 2-7 (inferred), Synthetic; also called compound 120)
III: K([γGlu-γGlu-C20 diacid])CNTATCATQRLAEFLRHSSPNFGAIPSSTNVGPRTY-NH2 (disulfide 2-7 (inferred), Synthetic; also called compound 110)
IV: K([γGlu-C20 diacid])CNTATCATQRLAEFLRHSSPNFGAIPSSTNVGSHTY-NH2 (disulfide 2-7 (inferred), Synthetic)
### Prompt Given 4 binders, produce a descending ranking by hCTR funct. EC50 (pM). When ranking, write the labels in the order the request describes.
### Response III, IV, I, II
